Just for reference, ChEMBL document CHEMBL4190400 is where these values come from.

# assay-protocol: in vitro
# settings: mouse, plasma
property: fraction unbound at 6 h

Nc1ccc(Cl)cc1CN1CCN(C(=O)CNC(=O)CC2CCC(F)(F)CC2)CC1
0.131
O=C(CC12CC3CC(CC(C3)C1)C2)NCC(=O)N1CCN(Cc2ccccc2OCc2ccc(-c3ncco3)cc2)CC1
0.003

q: Data request, read-out fraction unbound at 6 h, for [2H]C([2H])(c1cc(Cl)ccc1NCc1ccc(S(C)(=O)=O)cc1)N1CCN(C(=O)CNC(=O)C2CC23CCC(F)(F)CC3)CC1 (single isomer, unassigned; (-))
a: 0.002

q: What about [2H]C([2H])(c1cc(Cl)ccc1N)N1CCN(C(=O)CNC(=O)C2CC23CCC(F)(F)CC3)CC1 (single isomer, unassigned; (-)) ?
a: 0.121

q: What about CS(=O)(=O)c1ccc(COc2ccc(Cl)cc2CN2CCN(C(=O)CNC(=O)C3CC34CCC(F)(F)CC4)CC2)cc1 (stereo in doubt; 3-22) ?
a: 0.024

###

# assay-protocol: AUClast in mouse at 50 mg/kg, po administered via gavage cotreated with 50 mg/kg ritonavir
# Format: ADME, organism-based
# Design: dose 50 mg/kg, route oral, time 0 - last
# settings: in vivo
Entries annotated with measured AUC(0-t)
A number alone suffices; assume µM·h.

Example entries begin here.
CS(=O)(=O)c1ccc(COc2ccc(Cl)cc2CN2CCN(C(=O)CNC(=O)C3CC34CCC(F)(F)CC4)CC2)cc1 (stereo in doubt; 3-22)
116
[2H]C([2H])(c1cc(Cl)ccc1N)N1CCN(C(=O)CNC(=O)C2CC23CCC(F)(F)CC3)CC1 (single isomer, unassigned; (-))
121

q: Data request, read-out AUC(0-t), for [2H]C([2H])(c1cc(Cl)ccc1NCc1ccc(S(C)(=O)=O)cc1)N1CCN(C(=O)CNC(=O)C2CC23CCC(F)(F)CC3)CC1 (single isomer, unassigned; (-))
a: 108

###

# System: Ebolavirus
# assay-protocol: Antiviral activity against VSV pseudotyped Ebolavirus expressing M-GFP infected in African green monkey Vero E6 cells assessed as inhibition of viral infection pre-incubated for 2 hrs before infection and measured after 8 to 12 hrs by fluorescence microscopic method
# Assay type: functional, Vero C1008
# settings: vero c1008
property: IC50
Answer format: number, then unit.

Example entries begin here.
[2H]C([2H])(c1cc(Cl)ccc1N)N1CCN(C(=O)CNC(=O)C2CC23CCC(F)(F)CC3)CC1 (racemic)
94 nM
[2H]C([2H])(c1cc(Cl)ccc1N)N1CCN(C(=O)CNC(=O)C2CC23CCC(F)(F)CC3)CC1 (stereo in doubt; 3-19)
180 nM

q: Data request, read-out IC50, for [2H]C([2H])(c1cc(Cl)ccc1N)N1CCN(C(=O)CNC(=O)C2CC23CCC(F)(F)CC3)CC1 (single isomer, unassigned; (-))
a: 51 nM

###

# assay-protocol: Concentration in mouse plasma at 25 mg/kg, po administered via gavage cotreated with 20 mg/kg ritonavir
# Type: ADME, organism-based
# settings: in vivo
property: concentration (nM)
A number alone suffices; assume nM.

q: Data request, read-out concentration, for [2H]C([2H])(c1cc(Cl)ccc1N)N1CCN(C(=O)CNC(=O)CC2CCC(F)(F)CC2)CC1
a: 1700

###

# assay-protocol: Clearance in mouse at 50 mg/kg, po administered via gavage cotreated with 50 mg/kg ritonavir
# Assay type: ADME, organism-based
# settings: in vivo
Entries annotated with measured CL/F

q: Data request, read-out CL/F, for CS(=O)(=O)c1ccc(COc2ccc(Cl)cc2CN2CCN(C(=O)CNC(=O)C3CC34CCC(F)(F)CC4)CC2)cc1 (stereo in doubt; 3-22)
a: 11.9 mL/min/kg

q: What about [2H]C([2H])(c1cc(Cl)ccc1N)N1CCN(C(=O)CNC(=O)C2CC23CCC(F)(F)CC3)CC1 (single isomer, unassigned; (-)) ?
a: 15.5 mL/min/kg

q: What about [2H]C([2H])(c1cc(Cl)ccc1NCc1ccc(S(C)(=O)=O)cc1)N1CCN(C(=O)CNC(=O)C2CC23CCC(F)(F)CC3)CC1 (single isomer, unassigned; (-)) ?
a: 12.5 mL/min/kg
